# Tested on: Plasmodium berghei
# PROTOCOL_DESCRIPTION: Screen against P. berghei liver stage (PbLuc), transformed with Luciferase, at 10uM
# Assay type: functional, HepG2
# PARTICULARS: tested at 10 uM
In all, about 69,000 compounds went through this assay and about 8,600 (12%) showed an effect of 50% or more. Only a selection was taken, and strong results are over-represented in it overall.
MEASURED_PARAMETER: INHIBITION (%)
Quick note: give the figure in %, leave out the unit.

Let me know recorded INHIBITION for Cc1n[nH]c(C)c1CCNC(=O)C1CCCN(Cc2ccco2)C1 (configuration not stated) , thanks.
-4.96

Let me know recorded INHIBITION for Cc1nonc1CN(C)Cc1nc(-c2cccc(F)c2F)oc1C , thanks.
8.99

Let me know recorded INHIBITION for CNc1cc(C2CCCN(Cc3ccccc3OCC(=O)O)C2)ccn1 (configuration not stated) , thanks.
18.3

Let me know recorded INHIBITION for CCn1nc(C)c(CCNC(=O)C2CCCN(CC(N)=O)C2)c1C (configuration not stated) , thanks.
18.8

Let me know recorded INHIBITION for CCOc1ccc2[nH]c(=O)c(CN3CCCC3c3ccccn3)cc2c1 (configuration not stated) , thanks.
32.7

Let me know recorded INHIBITION for CCN1CC(C(=O)NCc2noc(Cc3ccccc3)n2)CCC1=O (configuration not stated) , thanks.
17.6

Let me know recorded INHIBITION for CCOc1cncc(N2CCN(c3ccccc3O)CC2)n1 , thanks.
39.7

====

# Tested on: Plasmodium berghei
# PROTOCOL_DESCRIPTION: Screen against P. berghei liver stage (PbLuc), transformed with Luciferase, at 10uM
# Assay type: functional, HepG2
# PARTICULARS: tested at 10 uM
About 8,600 (12%) of roughly 69,000 compounds showed an effect of 50% or more. This excerpt belongs to a sample that is enriched for strong results.
For each record, write down the corresponding INHIBITION.
Quick note: give the figure in %, leave out the unit.

Let me know recorded INHIBITION for Cc1ncsc1C(=O)N1CCCC(CO)(CC2CC2)C1 (configuration not stated) , thanks.
29.4

Let me know recorded INHIBITION for O=C(O)c1cc(C2CC2)nc2c(Cl)cnn12 , thanks.
29.2

Let me know recorded INHIBITION for COc1ccc(C(N)=O)cc1NCc1ncc(C(C)(C)C)o1 , thanks.
15.7

Let me know recorded INHIBITION for COCCN1CC(O)CN(C(=O)c2ccc(SC)cc2)CC1=O (configuration not stated) , thanks.
29

Let me know recorded INHIBITION for Cn1c(CCCNC(=O)Nc2cn[nH]c2)nc2ccccc21 , thanks.
-7.66

Let me know recorded INHIBITION for Cc1cncc(C(=O)N2CC[C@@H]3[C@H]2CCC(=O)N3CCN(C)C)c1 , thanks.
29

Let me know recorded INHIBITION for COc1ccc(NC(=O)CCn2nc(-c3cccs3)oc2=O)cc1OC , thanks.
-22.9

Let me know recorded INHIBITION for CCc1nc(CCNC(=O)Nc2cc(C(N)=O)ccc2OC)cs1 , thanks.
-10.8

Let me know recorded INHIBITION for Cn1c(CCNc2nccnc2C#N)nc2ccc(F)cc21 , thanks.
67.3

Let me know recorded INHIBITION for CNC(=O)c1ccc(OC)c(NCc2noc(-c3cccs3)n2)c1 , thanks.
10

Let me know recorded INHIBITION for CC(O)c1cccc(OCc2ccon2)c1 (configuration not stated) , thanks.
74.3

Let me know recorded INHIBITION for CC(C)n1nccc1NC(=O)NCCc1nc2ccc(F)cc2n1C , thanks.
73.6

Let me know recorded INHIBITION for Cn1c(CCNc2nccnc2C#N)nc2cc(Cl)ccc21 , thanks.
32.3

Let me know recorded INHIBITION for CNC(=O)c1ccc(OC)c(NCc2noc(-c3ccsc3)n2)c1 , thanks.
-48.5

Let me know recorded INHIBITION for CN(C)CCN1C(=O)CC[C@@H]2[C@H]1CCN2C(=O)c1ccc(C#N)cc1 , thanks.
70.4

Let me know recorded INHIBITION for CN(C)C1COC2(CCN(Cc3ccc4c(c3)OCO4)CC2)C1 (configuration not stated) , thanks.
-50.4

Let me know recorded INHIBITION for CCCS(=O)(=O)N1CCc2nc(N3CCOCC3)nc(N(C)C)c2C1 , thanks.
43.8

====

For each record, write down the corresponding INHIBITION.
# Test system: Plasmodium berghei
# PROTOCOL_DESCRIPTION: Screen against P. berghei liver stage (PbLuc), transformed with Luciferase, at 10uM
# Type: functional, HepG2
# PARTICULARS: tested at 10 uM
Out of some 69,000 compounds screened, about 8,600 (12%) showed an effect of 50% or more. The sample as a whole holds a higher share of strong results than the screen did.
Quick note: give the figure in %, leave out the unit.

Let me know recorded INHIBITION for CN(C)C(=O)[C@@H]1CCO[C@@H]2CCN(CCc3ccccc3)C[C@@H]21 , thanks.
28.5

Let me know recorded INHIBITION for COc1ccc2c(c1)OCC(CNC(=O)c1cnc(O)cn1)C2 (configuration not stated) , thanks.
12.9

Let me know recorded INHIBITION for CCN1CCn2c(C)cnc2C12CCN(C(=O)C(C)C)CC2 , thanks.
-40.5

Let me know recorded INHIBITION for COc1ccc2c(c1)OCC(CNC(=O)CCc1c(C)n[nH]c1C)C2 (configuration not stated) , thanks.
35

Let me know recorded INHIBITION for Cc1n[nH]c(C)c1CCC(=O)NCC1CCOc2ccccc2C1 (configuration not stated) , thanks.
49.9

Let me know recorded INHIBITION for COc1ccc2c(c1)OCC(CNC(=O)c1cc[nH]c1C)C2 (configuration not stated) , thanks.
-3.83

Let me know recorded INHIBITION for CCOc1ncccc1CNS(=O)(=O)N1CCOCC1 , thanks.
-8.28

====

# Tested on: Plasmodium berghei
# PROTOCOL_DESCRIPTION: Screen against P. berghei liver stage (PbLuc), transformed with Luciferase, at 10uM
# Type: functional, HepG2
# PARTICULARS: tested at 10 uM
Screen size: about 69,000 compounds; about 8,600 (12%) showed an effect of 50% or more. Many of the other results were omitted from the sample, so strong results are more common in it than they were.
Friendly reminder: INHIBITION below 20% is 1 (yes), at or above is 0 (no).

Dear colleague, could you confirm whether INHIBITION of CC(C)CN1C[C@@H]2C[C@H](C(=O)NCc3cccnc3)[C@H](C1)O2 falls below 20%? Thanks.
0 (no)

Dear colleague, could you confirm whether INHIBITION of COCCN1CCC2(CCN(c3ncccn3)CC2)C1=O falls below 20%? Thanks.
0 (no)

Dear colleague, could you confirm whether INHIBITION of Cc1cc(C)cc(N2CCN(Cc3cccnc3)CC2=O)c1 falls below 20%? Thanks.
0 (no)

Dear colleague, could you confirm whether INHIBITION of CC(CN1CCCC1=O)NC(=O)Nc1cccnc1-n1cccn1 (stereo unspecified) falls below 20%? Thanks.
1 (yes)

Dear colleague, could you confirm whether INHIBITION of CN(Cc1nc(Cc2cccc(C(F)(F)F)c2)no1)C1CCOCC1 falls below 20%? Thanks.
0 (no)

Dear colleague, could you confirm whether INHIBITION of CC(C)COC(=O)N1CCN(C(=O)c2ccc3nccn3c2)CC1 falls below 20%? Thanks.
0 (no)

Dear colleague, could you confirm whether INHIBITION of Cc1nn(CCC#N)c(C)c1CCC(=O)N(C)C falls below 20%? Thanks.
0 (no)

Dear colleague, could you confirm whether INHIBITION of Cc1cccc(CN2C[C@@H]3CN(C(=O)C4CCOC4)C[C@@H]3C2=O)c1 (stereo partly specified) falls below 20%? Thanks.
0 (no)

Dear colleague, could you confirm whether INHIBITION of CCN(CC)C(=O)[C@@H]1C[C@@H](N)CN1c1nc(N(C)C)nc(C)c1C falls below 20%? Thanks.
0 (no)

Dear colleague, could you confirm whether INHIBITION of Cn1cc(C#N)c(=O)n(CC(O)c2ccccc2F)c1=O (stereo unspecified) falls below 20%? Thanks.
1 (yes)

Dear colleague, could you confirm whether INHIBITION of O=C(CCN1CCOCC1)Nc1cccc(CNCc2ccsc2)c1 falls below 20%? Thanks.
1 (yes)

Dear colleague, could you confirm whether INHIBITION of CCN(CC)C(=O)[C@@H]1C[C@H](N)CN1c1nnc(-c2ccccc2)s1 falls below 20%? Thanks.
0 (no)

Dear colleague, could you confirm whether INHIBITION of Cc1ccc(CN2C[C@@H]3C[C@H](C(=O)NCc4cccnc4)[C@H](C2)O3)cc1 falls below 20%? Thanks.
0 (no)

Dear colleague, could you confirm whether INHIBITION of NC(=O)c1nc(CC(=O)Nc2cccc(C(F)(F)F)c2)no1 falls below 20%? Thanks.
1 (yes)

Dear colleague, could you confirm whether INHIBITION of Cn1c(=O)[nH]c(=O)n2c(CC(=O)Nc3c(Cl)cccc3Cl)cnc12 falls below 20%? Thanks.
1 (yes)

Dear colleague, could you confirm whether INHIBITION of CC(=O)N1CCC2(CCN(CC3CCOC3)C2)CC1 (stereo unspecified) falls below 20%? Thanks.
0 (no)

Dear colleague, could you confirm whether INHIBITION of Cc1cccc(CN2C[C@@H]3CN(C(=O)[C@H]4CCCO4)C[C@@H]3C2=O)c1 falls below 20%? Thanks.
0 (no)

Dear colleague, could you confirm whether INHIBITION of CCc1ccc(C(=O)Nc2ccc3c(c2)N(C)CCN(C)C3)o1 falls below 20%? Thanks.
0 (no)

Dear colleague, could you confirm whether INHIBITION of CN1CCN(C)c2cc(NC(=O)c3cc[nH]n3)ccc2C1 falls below 20%? Thanks.
0 (no)

Dear colleague, could you confirm whether INHIBITION of CSCc1ccc(C(=O)NCCCNc2ccc(C(F)(F)F)cn2)cc1 falls below 20%? Thanks.
0 (no)

Dear colleague, could you confirm whether INHIBITION of COc1ccc(CN2C[C@@H]3CN(C(=O)[C@H]4CCCO4)C[C@@H]3C2=O)cc1 falls below 20%? Thanks.
1 (yes)

Dear colleague, could you confirm whether INHIBITION of O=C(O)[C@H]1C[C@@H](C(=O)NCc2ccncc2)CN(Cc2ccccc2)C1 falls below 20%? Thanks.
1 (yes)

Dear colleague, could you confirm whether INHIBITION of O=C(c1ccncc1)N1CCc2ncnc(C3CC3)c2CC1 falls below 20%? Thanks.
0 (no)

Dear colleague, could you confirm whether INHIBITION of CNC(=O)[C@@H]1C[C@@H](N)CN1C(=O)CCSCc1ccccc1 falls below 20%? Thanks.
1 (yes)

Dear colleague, could you confirm whether INHIBITION of CC(C)N1CCO[C@@H]2CN(C(=O)NCc3ccccc3)CC[C@@H]2C1 falls below 20%? Thanks.
0 (no)

Dear colleague, could you confirm whether INHIBITION of Cc1cnn(C2CCCN(C(=O)c3cn4ccccc4n3)C2)c1 (stereo unspecified) falls below 20%? Thanks.
0 (no)

Dear colleague, could you confirm whether INHIBITION of O=C(CN1CCCCCC1)N1CCc2nnc(C3CCCNC3)n2CC1 (stereo unspecified) falls below 20%? Thanks.
0 (no)

Dear colleague, could you confirm whether INHIBITION of O=C(C1CCOC1)N1C[C@H]2CN(Cc3cccnc3)C(=O)[C@H]2C1 (stereo partly specified) falls below 20%? Thanks.
1 (yes)

Dear colleague, could you confirm whether INHIBITION of CC(=O)N1CCC2(CCN(CC3CCCCC3)C2)CC1 falls below 20%? Thanks.
0 (no)

Dear colleague, could you confirm whether INHIBITION of CN(C)C(CNC(=O)c1ccc(-n2cnnn2)cc1)c1ccccc1Cl (stereo unspecified) falls below 20%? Thanks.
1 (yes)

Dear colleague, could you confirm whether INHIBITION of O=C(O)C1(n2ccc(-c3ccco3)n2)CCN(Cc2ccsc2)CC1 falls below 20%? Thanks.
1 (yes)

Dear colleague, could you confirm whether INHIBITION of Cc1ccc(C(=O)N2CCCN(Cc3cccs3)CC2)c(=O)[nH]1 falls below 20%? Thanks.
1 (yes)

Dear colleague, could you confirm whether INHIBITION of Cc1csc(Nc2nccnc2C2CCCN2CC(N)=O)n1 (stereo unspecified) falls below 20%? Thanks.
1 (yes)

Dear colleague, could you confirm whether INHIBITION of CCc1nc(C2CCCN(C(=O)c3ccc(OC)cc3)C2)no1 (stereo unspecified) falls below 20%? Thanks.
1 (yes)

Taken from ChEMBL document CHEMBL4513216.
